# Assay System: ERα (Homo sapiens (Human), UniProt P03372)
# Experiment Description: ERα degradation (MCF7 cells), in-cell Western
# Type: cell-based
# Test Conditions: remaining ERα protein at 10 μM ligand, MCF7 cells, relative to DMSO control
Measurement Type: % ERα remaining (%)

>>> numeric_readout("O=C(O)/C=C/c1ccc(Oc2c(-c3ccc(O)cc3)sc3c(F)c(O)ccc23)cc1 [Example 39]")
24
>>> numeric_readout("O=C(O)/C=C/c1ccc(Oc2c(-c3ccc(C(F)(F)F)cc3C(F)(F)F)sc3cc(O)ccc23)cc1 [Example 11]")
15
>>> numeric_readout("CNC(=O)/C=C/c1ccc(Oc2c(-c3ccc(O)c(C)c3)sc3cc(O)ccc23)cc1 [Example 68]")
43
>>> numeric_readout("C[C@H](O)c1ccccc1-c1sc2cc(O)ccc2c1Oc1ccc(/C=C/C(=O)O)cc1 [Example 25]")
22
>>> numeric_readout("O=C(/C=C/c1ccc(Oc2c(-c3ccc(O)cc3)sc3cc(O)ccc23)cc1)NCCC(F)(F)F [Example 31]")
45
>>> numeric_readout("COC(=O)/C=C/c1ccc(Oc2c(-c3ccc(O)cc3)sc3c(F)c(O)c(F)cc23)cc1 [Example 37]")
38
>>> numeric_readout("CN(C)c1ccccc1-c1sc2cc(O)ccc2c1Oc1ccc(/C=C/C(=O)O)cc1 [Example 125]")
11
>>> numeric_readout("COc1ccc(-c2sc3cc(O)ccc3c2Oc2ccc(/C=C/C(=O)O)cc2)c(C)n1 [Example 129]")
22

====

Recorded % ERα remaining by entry
# Assay System: ERα (Homo sapiens (Human))
# Experiment Description: ERα degradation (MCF7 cells), in-cell Western
# Format: cell-based
# Test Conditions: remaining ERα protein at 10 μM ligand, MCF7 cells, relative to DMSO control
Measurement Type: % ERα remaining (%)

>>> numeric_readout("COc1ccc(-c2sc3cc(O)ccc3c2Oc2ccc(/C=C/C(=O)O)cc2)c(C(C)C)c1 [Example 134]")
12
>>> numeric_readout("C/C(=C\\c1ccc(Oc2c(-c3ccc(O)cc3)sc3cc(O)ccc23)cc1)C(=O)O [Example 28]")
33
>>> numeric_readout("Cc1nnc(/C=C/c2ccc(Oc3c(-c4ccccc4C(C)C)sc4cc(O)ccc34)cc2)[nH]1 [Example 105]")
25
>>> numeric_readout("COC(=O)/C=C/c1ccc(Oc2c(-c3ccccc3)sc3cc(O)ccc23)cc1 [Example 44]")
25
>>> numeric_readout("C/C(=C\\C(=O)O)c1ccc(Oc2c(-c3ccc(O)cc3)sc3cc(O)ccc23)cc1 [Example 62]")
42
>>> numeric_readout("Cc1nnc(/C=C/c2ccc(Oc3c(-c4ccc(F)cc4C)sc4cc(O)ccc34)cc2)o1 [Example 46]")
41
>>> numeric_readout("O=C(O)/C=C/c1ccc(Oc2c(-c3cccc(F)c3)sc3cc(O)ccc23)cc1 [Example 7]")
22
>>> numeric_readout("CC(C)c1ccccc1-c1sc2cc(O)ccc2c1N(C)c1ccc(/C=C/C(=O)O)cc1 [Example 119]")
19

====

# Assay System: ER (endogenous, MCF7 cells) (Homo sapiens (Human), UniProt P03372)
# Sequence (P03372 whole entry): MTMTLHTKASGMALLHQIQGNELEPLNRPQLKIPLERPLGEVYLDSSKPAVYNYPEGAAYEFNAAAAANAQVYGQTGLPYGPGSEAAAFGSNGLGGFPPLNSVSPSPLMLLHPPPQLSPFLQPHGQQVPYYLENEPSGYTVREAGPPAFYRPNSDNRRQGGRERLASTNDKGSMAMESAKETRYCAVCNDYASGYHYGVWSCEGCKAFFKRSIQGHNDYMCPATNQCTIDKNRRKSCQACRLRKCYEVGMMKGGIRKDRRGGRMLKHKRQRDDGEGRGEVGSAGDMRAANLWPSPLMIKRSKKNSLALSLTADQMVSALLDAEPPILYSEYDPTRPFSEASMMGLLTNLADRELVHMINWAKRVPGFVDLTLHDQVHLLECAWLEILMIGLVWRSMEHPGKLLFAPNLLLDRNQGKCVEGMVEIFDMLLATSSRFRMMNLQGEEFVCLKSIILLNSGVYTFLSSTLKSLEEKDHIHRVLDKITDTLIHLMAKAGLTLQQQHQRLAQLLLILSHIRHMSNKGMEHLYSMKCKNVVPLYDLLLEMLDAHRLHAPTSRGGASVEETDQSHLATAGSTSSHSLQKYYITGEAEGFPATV
# Experiment Description: ER transcription assay (MCF7 cells), ERE-luciferase reporter
# Format: cell-based
# Test Conditions: inflection point of the inhibition of transcription in MCF7 cells; 0.1 nM estradiol, 24 hours; read-out: MCF7 IC50
Friendly reminder: IC50 below 20 nM is met, at or above is not met.

>>> classification("CCOC(=O)/C=C/c1ccc(Oc2c(-c3ccc(O)cc3)sc3cc(O)ccc23)cc1OC")
"not met"
>>> classification("CC(=O)Oc1ccc2c(Oc3ccc(/C=C/C(=O)O)cc3)c(-c3ccccc3C(C)C)sc2c1")
"met"
>>> classification("CNC(=O)/C=C/c1ccc(Oc2c(-c3ccc(O)cc3)sc3cc(O)ccc23)cn1")
"not met"
>>> classification("CC(C)c1ccccc1-c1sc2cc(O)ccc2c1Oc1ccc(/C=C/c2nnc(C3CC3)o2)cc1")
"not met"
>>> classification("COc1ccc(-c2sc3cc(O)ccc3c2Oc2ccc(/C=C/C(=O)O)cc2)c(C)n1")
"not met"
>>> classification("O=C(O)/C=C/c1ccc(Oc2c(-c3ccccc3C3CC3)sc3cc(O)ccc23)cc1")
"not met"
>>> classification("CC(C)c1ccccc1-c1sc2c(F)c(O)ccc2c1Oc1ccc(/C=C/C(=O)O)cc1")
"met"
>>> classification("O=C(O)/C=C/c1ccc(Oc2c(-c3ccccc3C3CCC3)sc3cc(O)ccc23)cc1")
"met"
>>> classification("C#Cc1ccccc1-c1sc2cc(O)ccc2c1Oc1ccc(/C=C/C(=O)O)cc1")
"not met"
>>> classification("CC(C)c1ccccc1-c1sc2cc(O)ccc2c1Oc1ccc(/C=C/C(=O)O)nc1")
"not met"
>>> classification("Cc1nnc(/C=C/c2ccc(Oc3c(-c4ccccc4C(C)C)sc4cc(O)ccc34)cc2)[nH]1")
"met"
>>> classification("CN(C)c1ccccc1-c1sc2cc(O)ccc2c1Oc1ccc(/C=C/C(=O)O)cc1")
"not met"
>>> classification("O=C(O)/C=C/c1ccc(Oc2c(-c3ccccc3CC(F)(F)F)sc3cc(O)ccc23)cc1")
"met"
>>> classification("CC(=O)/C=C/c1ccc(Oc2c(-c3ccc(C(F)(F)F)cc3)sc3cc(O)ccc23)cc1")
"not met"
>>> classification("Cn1cnc(/C=C/c2ccc(Oc3c(-c4ccc(O)cc4)sc4cc(O)ccc34)cc2)c1")
"not met"
>>> classification("O=C(O)/C=C/c1ccc(Oc2c(-c3ccccc3CN3CCCC3)sc3cc(O)ccc23)cc1")
"not met"
>>> classification("CC(C)c1ccccc1-c1sc2cc(OCN3C(=O)c4ccccc4S3(=O)=O)ccc2c1Oc1ccc(/C=C/C(=O)O)cc1")
"not met"
>>> classification("CCCc1nnc(/C=C/c2ccc(Oc3c(-c4ccccc4C(C)C)sc4cc(O)ccc34)cc2)o1")
"met"
>>> classification("COc1ccc(-c2sc3cc(O)ccc3c2Oc2ccc(/C=C/C(=O)O)cc2)c(C(F)(F)F)n1")
"not met"
>>> classification("CC(=O)/C=C/c1ccc(Oc2c(-c3ccc(F)cc3C(F)(F)F)sc3cc(O)ccc23)cc1")
"met"
>>> classification("Cn1nnc(Cc2ccccc2-c2sc3cc(O)ccc3c2Oc2ccc(/C=C/C(=O)O)cc2)n1")
"not met"
>>> classification("COC(=O)/C=C/c1ccc(Oc2c(-c3ccccc3C(C)C)sc3cc(O)ccc23)cc1")
"not met"
>>> classification("COCCC(=O)Oc1ccc2c(Oc3ccc(/C=C/C(=O)O)cc3)c(-c3ccccc3C(C)C)sc2c1")
"met"
>>> classification("Cc1cccc(C(C)C)c1-c1sc2cc(O)ccc2c1Oc1ccc(/C=C/C(=O)O)cc1")
"not met"
>>> classification("CC(F)(F)c1ccccc1-c1sc2cc(O)ccc2c1Oc1ccc(/C=C/C(=O)O)cc1")
"met"

====

Recorded pIC50 by entry
# Assay System: ER (endogenous, MCF7 cells) (Homo sapiens (Human), UniProt P03372)
# Experiment Description: ER transcription assay (MCF7 cells), ERE-luciferase reporter
# Type: cell-based
# Test Conditions: inflection point of the inhibition of transcription in MCF7 cells; 0.1 nM estradiol, 24 hours; read-out: MCF7 IC50
pIC50: −log10 of the molar value.
Measurement Type: pIC50

>>> numeric_readout("CC(C)c1ccccc1-c1sc2cc(O)ccc2c1N(C)c1ccc(/C=C/C(=O)O)cc1")
6.96
>>> numeric_readout("Cn1ccc2c(-c3sc4cc(O)ccc4c3Oc3ccc(/C=C/C(=O)O)cc3)cccc21")
6.05
>>> numeric_readout("CC(C)c1ccccc1-c1sc2cc(O)ccc2c1Oc1ccc(CCC(=O)O)cc1")
7.14
>>> numeric_readout("C[C@@H](O)c1ccccc1-c1sc2cc(O)ccc2c1Oc1ccc(/C=C/C(=O)O)cc1")
6.51

====

# Assay System: ERα (Homo sapiens (Human), UniProt P03372)
# Experiment Description: ERα degradation (MCF7 cells), in-cell Western
# Test Conditions: inflection point of the degradation in response to ligand concentration, MCF7 cells
pIC50: −log10 of the molar value.
Decision: pIC50 compared against 9; not below it gives Condition met, below it gives Condition not met.

>>> classification("O=C(O)/C=C/c1ccc(Oc2c(-c3ccccc3C(F)F)sc3cc(O)ccc23)cc1")
"Condition not met"
>>> classification("O=C(O)/C=C/c1ccc(Oc2c(-c3ccccc3C3CCC3)sc3cc(O)ccc23)cc1")
"Condition met"
>>> classification("Cc1cccc(-c2sc3cc(O)ccc3c2Oc2ccc(/C=C/C(=O)O)cc2)c1C")
"Condition not met"
>>> classification("Cc1nnc(/C=C/c2ccc(Oc3c(-c4ccc(F)cc4C)sc4cc(O)ccc34)cc2)o1")
"Condition not met"
>>> classification("Cc1cc(C(F)(F)F)ccc1-c1sc2cc(O)ccc2c1Oc1ccc(/C=C/C(=O)O)cc1")
"Condition not met"
>>> classification("CCOC(=O)/C=C/c1ccc(Oc2c(-c3ccc(O)cc3)sc3cc(O)ccc23)cc1C")
"Condition not met"
>>> classification("Cc1cc(-c2sc3cc(O)ccc3c2Oc2ccc(/C=C/C(=O)O)cc2)ccc1O")
"Condition not met"
>>> classification("CC/C(=C\\c1ccc(Oc2c(-c3ccccc3C(C)C)sc3cc(O)ccc23)cc1)C(=O)O")
"Condition not met"
>>> classification("CNC(=O)/C=C/c1ccc(Oc2c(-c3ccc(C(F)(F)F)cc3)sc3cc(O)ccc23)cc1 [Example 70]")
"Condition not met"
>>> classification("CC(C)c1ccccc1-c1sc2cc(O)ccc2c1Oc1ccc(/C=C/C(=O)O)cc1")
"Condition met"
>>> classification("Cn1nnnc1/C=C/c1ccc(Oc2c(-c3ccc(O)cc3)sc3cc(O)ccc23)cc1")
"Condition not met"
>>> classification("CC(C)c1ccccc1-c1sc2c(F)c(O)ccc2c1Oc1ccc(/C=C/C(=O)O)cc1")
"Condition met"
>>> classification("O=C(/C=C/c1ccc(Oc2c(-c3ccc(F)cc3)sc3cc(O)ccc23)cc1)NCCC(F)(F)F")
"Condition not met"
>>> classification("COc1ccc(-c2sc3cc(O)ccc3c2Oc2ccc(/C=C/C(=O)O)cc2)c(C(C)C)c1")
"Condition not met"
>>> classification("CNC(=O)/C=C/c1ccc(Oc2c(-c3ccc(O)cc3)sc3cc(O)ccc23)cc1")
"Condition not met"
>>> classification("Cc1ncccc1-c1sc2cc(O)ccc2c1Oc1ccc(/C=C/C(=O)O)cc1")
"Condition not met"
>>> classification("O=C(O)/C=C/c1ccc(Oc2c(-c3ccc(C(F)(F)F)cc3)sc3cc(O)ccc23)cc1")
"Condition not met"
>>> classification("C[C@@H](O)c1ccccc1-c1sc2cc(O)ccc2c1Oc1ccc(/C=C/C(=O)O)cc1")
"Condition not met"
>>> classification("O=C(O)/C=C/c1ccc(Oc2c(-c3ccccc3C3CCCC3)sc3cc(O)ccc23)cc1")
"Condition met"
>>> classification("CC(F)c1ccccc1-c1sc2cc(O)ccc2c1Oc1ccc(/C=C/C(=O)O)cc1 (centres unmarked)")
"Condition met"
>>> classification("O=C(O)/C=C/c1ccc(Oc2c(-c3ccccc3CN3CCC3)sc3cc(O)ccc23)cc1")
"Condition not met"
>>> classification("CC(C)(C)c1ccc(-c2sc3cc(O)ccc3c2Oc2ccc(/C=C/C(=O)O)cc2)cc1")
"Condition not met"
>>> classification("CC(C)c1ccccc1-c1sc2cc(O)ccc2c1N(C)c1ccc(/C=C/C(=O)O)cc1")
"Condition not met"
>>> classification("O=C(O)CCc1ccc(Oc2c(-c3ccc(O)cc3)sc3cc(O)ccc23)cc1")
"Condition not met"
